test system: HCT-116; assay: NCI tumour cell line growth inhibition, 48 h
Active and inactive are the calls of the source. Cut-off read from the data, not from the text of the source: active = GI50 up to about 1.1 µM and inactive = higher.
Possible outcomes: active, inactive

compound	classification
O=C(O)CCC(NC(=O)c1ccc(CNc2nc3ccccc3nc2C(=O)O)cc1)C(=O)O (centres undefined)	inactive
CCOC(=O)/C=C(/C(=O)OCC)n1cc(C)c(=O)n(Cc2cnnn2CCCCOC(C)=O)c1=O	inactive
Cc1n(CC(C)C)c2c([n+]1C)C(=O)c1ccccc1C2=O	active
Cc1ccc(S[C@@](C=O)(NC(=O)OCc2ccccc2)C(F)(F)F)cc1	inactive
COc1ccc(C2C(=O)C(Cl)N2Nc2nc(C)cc(O)n2)cc1OC (centres undefined)	inactive
COc1cc2c(cc1O)[C@]1(Cc3ccc4c(c3C1=O)OCO4)N(C)CC2	inactive
C/N=c1\sc2c(n1C)C(=O)c1ccccc1C2=O	inactive
O=C1C(Br)=CC2(C=C1Br)CCNC1=C2C2=NCCc3c[nH]c(c32)C1=O	active
COc1cccc(C(C#N)NNC(=O)c2c(Cl)c(Cl)c(Cl)c(Cl)c2-c2nc3cc(C(=O)c4ccccc4)ccc3[nH]2)c1O (centres undefined)	inactive
CCOC(=O)c1c(-c2ccc(OC)c(O)c2)c(C#N)c(=S)n(C2OC(CO)C(O)C(O)C2O)c1-c1ccccc1 (centres undefined)	inactive
ClCCN1CCO/C1=N/c1ccc2c(c1)CCCC2	inactive
O=C(O)c1cnc(-n2[nH]c3c(c2=O)CCCC3)[nH]c1=O	inactive
COc1cc(C(=O)Oc2c(C#N)sc3c2c(=O)n(-c2ccccc2)c(=S)n3-c2ccccc2)cc(OC)c1OC	inactive
O=C(O)c1c[nH]cc1C(=O)O	inactive

Every entry's value here was drawn from ChEMBL document CHEMBL1201862.
